For each entry below, report its TGI value.
system: CCRF-CEM leukemia; test: NCI tumour cell line growth inhibition, 48 h
Numbers only, in µM.

Solved entries:
[
  {
    "molecule": "CC1OC(OC2C(O[C@@H]3C[C@@H]4CC[C@@H]5[C@H](CC[C@]6(C)C7C(C[C@@H]56)O[C@]5(CC[C@@H](C)CO5)[C@H]7C)[C@@]4(C)C[C@H]3O)OC(CO)C(O)C2O)C(O)C(O)C1O (some centres undefined)",
    "assay.system": "CCRF-CEM leukemia",
    "u": "µM",
    "TGI": 3.52
  },
  {
    "molecule": "CCSC(=O)/C=C1\\CN(C(=O)OC(C)(C)C)C1C(=O)OC(C)(C)C (centres undefined)",
    "assay.system": "CCRF-CEM leukemia",
    "u": "µM",
    "TGI": 3.97
  },
  {
    "molecule": "ClCc1ccc2ccc3ccc(CCl)nc3c2n1",
    "assay.system": "CCRF-CEM leukemia",
    "u": "µM",
    "TGI": 8.64
  }
]

Need TGI for each of these molecules.
1. O=C(CC(C(=O)c1cccs1)c1ccsc1)c1ccco1 (centres undefined)
2. CCN(CC)CCC(=O)c1ccc(Oc2ccccc2)cc1

Result:
1: 50.1; 2: 51.3

I need TGI for every entry listed below, if you could help.
1. CO/N=C(/C(=O)OC)c1ccccc1COc1cccc(C(F)(F)F)c1
2. CC[N+]1(C)CCC(O)(/C=C/c2ccc(Cl)cc2)C(C(=O)/C=C/c2ccc(Cl)cc2)C1 (centres undefined)

Result:
1: 65.1; 2: 3.85

----------
Hi there, I'd appreciate the recorded TGI for every entry that follows.
test system: SF-295 CNS; experiment: NCI tumour cell line growth inhibition, 48 h
Answers are plain numbers, in µM.

[
  {
    "compound": "O=C(CN1C(=O)c2ccccc2C1=O)C(O)CN1C(=O)c2ccccc2C1=O (stereo not given)",
    "TGI / µM": 99.8
  }
]

Pending compound:
Q: Lab request: please report TGI under test system SF-295 CNS for CN(C)CCCNc1ccc2nnn3c4ccc(OC(=O)c5ccc([N+](=O)[O-])cc5)cc4c(=O)c1c23
Result: 20.5

----------
system: LOX IMVI melanoma; experiment: NCI tumour cell line growth inhibition, 48 h; in the data active means GI50 below about 0.43 µM; inactive means the rest
Choose the fitting class; nothing outside class 1 = active, class 0 = inactive is accepted.

[
  {
    "molecule": "COc1ccc2c(c1)OC(N)=C(C#N)C2c1ccc(F)cc1 (stereo unspecified)",
    "classification": "class 0"
  }
]

Q: Please share the test call associated with C=C1C(=O)O[C@H]2[C@H]1CC/C(CNS(=O)(=O)c1cccc3ccccc13)=C\CC[C@@]1(C)O[C@@H]21 .
Result: class 0

Q: Same question, CN(C)CCNC(=O)c1cc2c3ccccc3[nH]c2c2ncccc12 this time
Result: class 0

Q: Try this molecule next: NCCCCN(Cc1nc2ccccc2[nH]1)[C@H]1CCCc2cccnc21
Result: class 0

Q: Next up: N#Cc1nc2cc(F)c(F)cc2nc1-c1ccc(Cl)cc1
Result: class 0

Q: Request: COc1cccc2c(=O)c3c(sc12)c(NCCN(C)C)nc1ccccc13
Result: class 0

Q: Further, for O=C1/C(=C/c2ccc(Cl)cc2)COc2ccc(O)c(O)c21 ?
Result: class 1

Q: Consider next the molecule C=CC(=O)Nc1cccc(C)c1Nc1ncc2cc(-c3c(Cl)c(OC)cc(OC)c3Cl)ccc2n1 in the same way.
Result: class 0

Q: Also CCCN(CCC)C(=O)[C@H](CC)[C@@H]1CC[C@@H](C)[C@@H]([C@H](C)[C@@H](O)[C@@H](C)C(=O)[C@H](CC)C2O[C@]3(C=C[C@@H](O)[C@]4(CC[C@@](C)([C@H]5CC[C@](O)(CC)[C@H](C)O5)O4)O3)[C@H](C)C[C@@H]2C)O1 (stereo partly specified) , if possible.
Result: class 0

Q: Same for C=C1CC[C@@H]2[C@](C)(COC(C)=O)[C@H](OC(C)=O)CC[C@@]2(C)[C@@H]1C/C=C1/C(=O)OC[C@H]1OC(C)=O
Result: class 0

Q: # repeat for OC(CNC1CCCC1)Cn1c2ccccc2c2ccccc21 (stereo unspecified)
Result: class 0
